System: MDA-MB-231
CONDITION INFO: 72 h
Threshold 1000 nM. EC50, CellTiter-Blue viability below it: condition met. EC50, CellTiter-Blue viability at it or above: condition not met.

Data request: Does the reported EC50, CellTiter-Blue viability of the following compound sit strictly below 1000 nM? Oc1nc(-c2ccc(C(F)(F)F)cc2)nc2c1CSCC2
Data returned: condition not met

Data request: Does the reported EC50, CellTiter-Blue viability of the following compound sit strictly below 1000 nM? Cn1c(Nc2ccc(C(F)(F)F)cc2)nc2cc(Oc3ccnc(-c4ncc(C(F)(F)F)[nH]4)c3)ccc21
Data returned: condition met

Data request: Does the reported EC50, CellTiter-Blue viability of the following compound sit strictly below 1000 nM? CNCc1ccc(-c2[nH]c3cc(F)cc4c3c2CCNC4=O)cc1
Data returned: condition met

Data request: Does the reported EC50, CellTiter-Blue viability of the following compound sit strictly below 1000 nM? C[C@@H](Oc1cc(-c2cnn(C3CCNCC3)c2)cnc1N)c1c(Cl)ccc(F)c1Cl
Data returned: condition not met

Data request: Does the reported EC50, CellTiter-Blue viability of the following compound sit strictly below 1000 nM? CN[C@@H]1C[C@H]2O[C@@](C)([C@@H]1OC)n1c3ccccc3c3c4c(c5c6ccccc6n2c5c31)C(=O)N[C@H]4O
Data returned: condition met
